Origin of the recorded values: ChEMBL document CHEMBL4706651

# test details: Drug level in ICR mouse plasma at 10 mg/kg, ip after 1 hr
# Format: ADME, organism-based
measure: concentration at 1 h (µg/mL)

> print(dat)
                                 mol.smiles               measure  numeric.readout
1  COc1ccc(-c2nc(-c3ccc(C[C@H](N)C(=O)O)cc3)no2)cc1-c1ccc(O)cc1.Cl  concentration at 1 h             3.11

---

# experimental system: Tryptophan 5-hydroxylase 1 (Homo sapiens) (UniProt P17752)
# Sequence (P17752 whole entry): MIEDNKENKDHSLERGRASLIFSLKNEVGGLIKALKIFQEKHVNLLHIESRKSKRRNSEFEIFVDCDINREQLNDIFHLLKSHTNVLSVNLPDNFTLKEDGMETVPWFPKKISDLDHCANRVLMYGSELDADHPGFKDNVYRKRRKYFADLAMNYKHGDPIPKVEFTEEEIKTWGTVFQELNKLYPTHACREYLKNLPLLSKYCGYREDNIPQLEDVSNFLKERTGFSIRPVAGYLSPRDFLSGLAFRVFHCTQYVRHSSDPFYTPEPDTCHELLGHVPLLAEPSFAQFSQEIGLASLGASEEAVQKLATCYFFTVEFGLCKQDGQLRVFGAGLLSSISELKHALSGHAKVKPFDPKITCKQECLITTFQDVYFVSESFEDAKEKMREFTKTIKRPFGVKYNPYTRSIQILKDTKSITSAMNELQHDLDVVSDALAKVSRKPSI
# test details: Inhibition of Tryptophan hydroxylase 1 (unknown origin) at 1 uM incubated for 4 hrs by fluorescence based assay
inhibition: recorded values
measure: inhibition (%)

> print(dat)
                                    molecule  unit.name  reported.relation  numeric.readout
 1  COc1ccc(Cc2nc(-c3ccc(C[C@H](N)C(=O)O)cc3)no2)cc1          %                  <                5
 2  CCOc1ccc(-c2nc(-c3ccc(C[C@H](N)C(=O)O)cc3)no2)cc1          %                  <                5
 3  COc1ccc(-c2cnc(-c3ccc(C[C@H](N)C(=O)O)cc3)[nH]2)cc1          %                  =             20.9
 4  CCOC(=O)[C@@H](N)Cc1ccc(-c2noc(-c3ccc(OC)c(-c4ccc(O)cc4)c3)n2)cc1          %                  =             80.7
 5  COc1ccc(-c2nnc(-c3ccc(C[C@H](N)C(=O)O)cc3)o2)cc1          %                  <                5
 6  COc1ccc(-c2nc(-c3ccc(C[C@H](N)C(N)=O)cc3)no2)cc1-c1ccc(O)cc1          %                  <                5
 7  COc1ccc(-c2cc(-c3nc(-c4ccc(C[C@H](N)C(=O)O)cc4)no3)ccc2OC)cc1          %                  =              100
 8  COc1ccc(-c2nc(-c3ccc(C[C@H](N)C(=O)O)cc3)ns2)cc1          %                  <                5
 9  COc1ccc(-c2nc(-c3ccc(C[C@H](N)C(=O)O)cc3)no2)cc1OC          %                  =               68
10  COc1ccc(-c2nnc(-c3ccc(C[C@H](N)C(=O)O)cc3)o2)cc1OC          %                  <                5
11  Cc1ccn(-c2cc(Cl)ccc2[C@@H](Oc2cc(-c3ccc(C[C@H](N)C(=O)O)cc3)nc(N)n2)C(F)(F)F)n1          %                  =               94
12  COc1ccc(-c2nc(-c3ccc(C[C@H](N)C(=O)O)cc3)ns2)cc1OC          %                  =             11.2
13  Nc1nc(OC(c2ccc(-c3cccc(F)c3)cc2)C(F)(F)F)cc(-c2ccc(C[C@H](N)C(=O)O)cc2)n1 (some centres undefined)          %                  =               68
14  COc1ccc(-c2cnc(-c3ccc(C[C@H](N)C(=O)O)cc3)s2)cc1          %                  =               10
15  COc1cccc(-c2nc(-c3ccc(C[C@H](N)C(=O)O)cc3)no2)c1          %                  <                5
16  N[C@@H](Cc1ccc(-c2noc(-c3ccccc3)n2)cc1)C(=O)O          %                  <                5
17  COc1ccc(-c2nc(-c3ccc(C[C@H](N)C(=O)O)cc3)no2)c(-c2ccc(O)cc2)c1          %                  =             43.5
18  COc1ccc(-c2nc(-c3ccc(C[C@H](N)C(=O)O)cc3)no2)cc1          %                  =               53
19  N[C@@H](Cc1ccc(-c2noc(-c3ccc(F)cc3)n2)cc1)C(=O)O          %                  =               47
